meta.source: ChEMBL document CHEMBL1136886

- STUDY TARGET: Voltage-gated inwardly rectifying potassium channel KCNH2 (Homo sapiens, UniProt Q12809)
- Sequence (Q12809 whole entry): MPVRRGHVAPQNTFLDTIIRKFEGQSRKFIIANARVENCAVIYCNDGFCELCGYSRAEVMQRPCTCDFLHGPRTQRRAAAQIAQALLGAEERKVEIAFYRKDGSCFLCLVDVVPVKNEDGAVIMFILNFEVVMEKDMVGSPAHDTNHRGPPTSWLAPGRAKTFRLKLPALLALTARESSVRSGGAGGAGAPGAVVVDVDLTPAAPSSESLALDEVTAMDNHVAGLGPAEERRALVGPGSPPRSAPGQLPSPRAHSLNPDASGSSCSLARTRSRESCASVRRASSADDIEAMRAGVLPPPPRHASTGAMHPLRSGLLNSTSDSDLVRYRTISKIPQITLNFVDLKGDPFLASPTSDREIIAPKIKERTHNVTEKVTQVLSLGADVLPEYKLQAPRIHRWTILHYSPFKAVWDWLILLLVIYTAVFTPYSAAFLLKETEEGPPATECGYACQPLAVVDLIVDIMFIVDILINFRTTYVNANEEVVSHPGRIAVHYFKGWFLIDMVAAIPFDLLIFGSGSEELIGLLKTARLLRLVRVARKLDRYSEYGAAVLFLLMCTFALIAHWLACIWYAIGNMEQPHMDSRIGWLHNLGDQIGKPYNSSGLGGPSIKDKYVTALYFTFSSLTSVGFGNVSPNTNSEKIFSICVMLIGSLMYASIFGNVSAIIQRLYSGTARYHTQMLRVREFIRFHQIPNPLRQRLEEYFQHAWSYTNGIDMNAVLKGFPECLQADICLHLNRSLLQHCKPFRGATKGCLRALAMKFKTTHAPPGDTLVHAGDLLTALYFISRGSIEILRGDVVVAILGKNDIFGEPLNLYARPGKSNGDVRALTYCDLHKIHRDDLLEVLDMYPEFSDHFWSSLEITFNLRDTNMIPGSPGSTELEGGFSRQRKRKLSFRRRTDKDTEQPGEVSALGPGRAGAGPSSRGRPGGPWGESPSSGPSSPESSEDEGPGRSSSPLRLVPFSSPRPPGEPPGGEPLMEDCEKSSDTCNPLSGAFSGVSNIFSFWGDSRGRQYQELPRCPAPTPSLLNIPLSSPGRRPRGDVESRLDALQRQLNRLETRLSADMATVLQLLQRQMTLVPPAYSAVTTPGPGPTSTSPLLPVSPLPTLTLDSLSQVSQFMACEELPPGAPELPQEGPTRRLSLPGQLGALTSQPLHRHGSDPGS
// reported pIC50 for each item listed
// pIC50 is dimensionless: -log10 of concentration (M)

Sample answers from the record:
1. CCN1CCN(c2cc3[nH]c(SC(C)(C)C)nc3cc2Cl)[C@H](C)C1 :: 6.00
2. C[C@@H]1CN(CCO)CCN1c1cc2[nH]c(SC(C)(C)C)nc2cc1Cl :: 5.80

Consider the additional compound presented here.
Q. Data request, read-out pIC50, for CCN1CCN(c2cc3[nH]c(S[C@]4(C)CC[C@H](NC(=O)OC)CC4)nc3cc2Cl)CC1
A. 5.82

---

- STUDY TARGET: UniProtKB P41146
- Sequence (P41146 whole entry): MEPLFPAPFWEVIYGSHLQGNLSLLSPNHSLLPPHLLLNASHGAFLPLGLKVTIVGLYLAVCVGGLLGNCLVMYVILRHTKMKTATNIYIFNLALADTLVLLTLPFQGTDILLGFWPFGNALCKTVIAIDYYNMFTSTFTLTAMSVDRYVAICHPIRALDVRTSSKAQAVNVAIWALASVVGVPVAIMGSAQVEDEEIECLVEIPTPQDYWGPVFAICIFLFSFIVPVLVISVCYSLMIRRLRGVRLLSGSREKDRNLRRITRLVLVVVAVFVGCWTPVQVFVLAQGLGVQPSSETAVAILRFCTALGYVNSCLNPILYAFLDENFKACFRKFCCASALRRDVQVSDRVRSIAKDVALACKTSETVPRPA
- PROTOCOL TEXT: Antagonist activity at ORL1 receptor expressed in CHO cells assessed as inhibition of NC/OFQ-stimulated [35S]GTPgammaS binding
- Assay type: functional, cell-based
// reported IC50 for each item listed
Could you kindly put the unit after your number?

1) CCOC(=O)N1CCC(C)(Sc2nc3cc(Cl)c(N4CCN(CC)CC4)cc3[nH]2)CC1 :: 1.1 nM
2) C[C@@H]1CN(CCC#N)CCN1c1cc2[nH]c(SC(C)(C)C)nc2cc1Cl :: 6.4 nM
3) CCN1CCN(c2cc3[nH]c(S[C@]4(C)CC[C@@H](NC(=O)OC)CC4)nc3cc2Cl)CC1 :: 0.72 nM
4) CC(=O)CN1CCN(c2cc3[nH]c(SC(C)(C)C)nc3cc2Cl)C(C)C1 (racemic) :: 41 nM

Consider the additional compound presented here.
Q. Data request, read-out IC50, for CCN1CCN(c2cc3[nH]c(S[C@]4(C)CC[C@@H](C(=O)NC)CC4)nc3cc2Cl)CC1
A. 1.1 nM
